assay: Solubility Test (ammonia alkalinity, spot on filter paper); type: physicochemical; conditions: aqueous buffer, thermodynamic from solid
assay.metric: solubility

Look at this molecule and give its reported solubility. Nc1c(N=Nc2ccc3c(O)c(N=Nc4cc(S(=O)(=O)O)ccc4S(=O)(=O)O)c(S(=O)(=O)O)cc3c2S(=O)(=O)O)cc(S(=O)(=O)O)c2cc(S(=O)(=O)O)c(N=Nc3ccc([N+](=O)[O-])cc3S(=O)(=O)O)c(O)c12 [Formula (2-10)] ≥ 120 mg/mL
